protocol: LNP particle size and polydispersity (ZetaSizer)
Assay type: physicochemical
condition summary: same LNPs, Table 4, post freeze/thaw
Method: • 5. The number of wells used on each plate was counted and 4 was added to this number. For plate B, PBS was prepared with Ribogreen diluted 1:100. For example, for 40 wells, 44 was used as the number. […] Both plates were read one after the other, using Ex. 465, Em. […] Using the standard curve, the slope and intercept were calculated and by extrapolation the mRNA concentrations of the samples on plate B & C were calculated (average and std.dev) • 10. […]
metric: Particle Size (nm) Post-Freeze/Thaw

CCCCCCCC/C=C\CCCCCCCC(=O)OC[C@H](CN(C)C)OC(=O)CCCCCCC/C=C\CCCCCCCC [DODAP, reference compound] ... 68.2
CCCCC/C=C\CCCC/C=C\CCCCC(=O)OC[C@H](CCN(C)C)OC(=O)CCCC/C=C\CCCC/C=C\CCCCC ... 122.6
CCCCCCCC/C=C\CCCCCCCC(=O)OC[C@H](CCN(C)C)OC(=O)CCCCCCC/C=C\CCCCCCCC ... 111.5
CCCCC/C=C\CCCC/C=C\CCCCC(=O)OC[C@H](CCN(CC)CC)OC(=O)CCCC/C=C\CCCC/C=C\CCCCC ... 103.2
CCCCC/C=C\C/C=C\CCCCCCCC(=O)OC[C@H](CCN(C)C)OC(=O)CCCCCCC/C=C\C/C=C\CCCCC [Compound O-11769, reference compound] ... 89.6
